- Test description: Pharmacokinetics of THC and CBD after oral MC formulation (Example 3)
- Run conditions: human, plasma, po, t½, 2.5 mg: single oral dose 2.5 mg THC/2.5 mg CBD after 12 hour fast (day 1)
Below: a set of entries, each annotated with reported half-life.
Numeric only. Scale: h

CCCCCc1cc(O)c2c(c1)OC(C)(C)[C@@H]1CCC(C)=C[C@@H]21 [THC, Δ^9-tetrahydrocannabinol] : 2.6

Exercise: Name the recorded half-life of the item C=C(C)[C@@H]1CCC(C)=C[C@H]1c1c(O)cc(CCCCC)cc1O in your answer.
Key: 4.25

----------
- Test description: Pharmacokinetics of THC and CBD after oral MC formulation (Example 3)
- Run conditions: human, plasma, po, AUC0-8, 2.5 mg fed: single oral dose 2.5 mg THC/2.5 mg CBD 30 minutes after high fat meal (day 8)
Result type: AUC(0-t)

Exercise: Name the recorded AUC(0-t) of the item C=C(C)[C@@H]1CCC(C)=C[C@H]1c1c(O)cc(CCCCC)cc1O in your answer.
Key: 3.67 ng·h/mL

----------
Below: a set of entries, each annotated with reported Cmax.
- Test description: Pharmacokinetics of THC and CBD after oral MC formulation (Example 3)
- Run conditions: human, plasma, po, Cmax, 5 mg: single oral dose 5 mg THC/5 mg CBD
Numeric only. Scale: ng/mL

C=C(C)[C@@H]1CCC(C)=C[C@H]1c1c(O)cc(CCCCC)cc1O : 1.51

Exercise: Name the recorded Cmax of the item CCCCCc1cc(O)c2c(c1)OC(C)(C)[C@@H]1CCC(C)=C[C@@H]21 [THC, Δ^9-tetrahydrocannabinol] in your answer.
Key: 2.56

----------
- Test description: Pharmacokinetics of THC and CBD after oral MC formulation (Example 3)
- Run conditions: human, plasma, po, Cmax, 7.5 mg: single oral dose 7.5 mg THC/7.5 mg CBD
Result type: Cmax
Don't forget the unit after the number, please.

CCCCCc1cc(O)c2c(c1)OC(C)(C)[C@@H]1CCC(C)=C[C@@H]21 [THC, Δ^9-tetrahydrocannabinol] : 3.84 ng/mL

Could you now look at the following compound, please?
Exercise: Name the recorded Cmax of the item C=C(C)[C@@H]1CCC(C)=C[C@H]1c1c(O)cc(CCCCC)cc1O in your answer.
Key: 2.26 ng/mL

----------
- Test description: Pharmacokinetics of THC and CBD after oral MC formulation (Example 3)
- Run conditions: human, plasma, oral, delay of Tmax by high fat meal, high fat meal 30 minutes before 2.5 mg dose versus fasted
Result type: Tmax

C=C(C)[C@@H]1CCC(C)=C[C@H]1c1c(O)cc(CCCCC)cc1O : ≥ 1 h

Could you now look at the following compound, please?
Exercise: Name the recorded Tmax of the item CCCCCc1cc(O)c2c(c1)OC(C)(C)[C@@H]1CCC(C)=C[C@@H]21 [THC, Δ^9-tetrahydrocannabinol] in your answer.
Key: ≥ 1 h

----------
- Test description: Pharmacokinetics of THC and CBD after oral MC formulation (Example 3)
- Run conditions: human, plasma, po, AUC0-8, 7.5 mg: single oral dose 7.5 mg THC/7.5 mg CBD
Below: a set of entries, each annotated with reported AUC(0-t).
Numeric only. Scale: ng·h/mL

Exercise: Name the recorded AUC(0-t) of the item CCCCCc1cc(O)c2c(c1)OC(C)(C)[C@@H]1CCC(C)=C[C@@H]21 [THC, Δ^9-tetrahydrocannabinol] in your answer.
Key: 10.6

Exercise: Name the recorded AUC(0-t) of the item C=C(C)[C@@H]1CCC(C)=C[C@H]1c1c(O)cc(CCCCC)cc1O in your answer.
Key: 7.47

----------
Below: a set of entries, each annotated with reported Cmax.
- Test description: Pharmacokinetics of THC and CBD after oral MC formulation (Example 3)
- Run conditions: human, plasma, po, Cmax, 2.5 mg: single oral dose 2.5 mg THC/2.5 mg CBD after 12 hour fast (day 1)
Numeric only. Scale: ng/mL

C=C(C)[C@@H]1CCC(C)=C[C@H]1c1c(O)cc(CCCCC)cc1O : 0.62

Exercise: Name the recorded Cmax of the item CCCCCc1cc(O)c2c(c1)OC(C)(C)[C@@H]1CCC(C)=C[C@@H]21 [THC, Δ^9-tetrahydrocannabinol] in your answer.
Key: 0.83

----------
- Test description: Pharmacokinetics of THC and CBD after oral MC formulation (Example 3)
- Run conditions: human, plasma, po, t½ (did not change with increasing dose), across doses 2.5 to 12.5 mg
Result type: half-life

CCCCCc1cc(O)c2c(c1)OC(C)(C)[C@@H]1CCC(C)=C[C@@H]21 [THC, Δ^9-tetrahydrocannabinol] : 2.5 h

Could you now look at the following compound, please?
Exercise: Name the recorded half-life of the item C=C(C)[C@@H]1CCC(C)=C[C@H]1c1c(O)cc(CCCCC)cc1O [CBD, cannabidiol] in your answer.
Key: 3.6 h

----------
- Test description: Pharmacokinetics of THC and CBD after oral MC formulation (Example 3)
- Run conditions: human, plasma, po, AUC0-8, 5 mg: single oral dose 5 mg THC/5 mg CBD
Result type: AUC(0-t) (ng·h/mL)
Numeric only. Scale: ng·h/mL

CCCCCc1cc(O)c2c(c1)OC(C)(C)[C@@H]1CCC(C)=C[C@@H]21 [THC, Δ^9-tetrahydrocannabinol] : 6.04

Could you now look at the following compound, please?
Exercise: Name the recorded AUC(0-t) of the item C=C(C)[C@@H]1CCC(C)=C[C@H]1c1c(O)cc(CCCCC)cc1O [CBD, cannabidiol] in your answer.
Key: 5.09

----------
Below: a set of entries, each annotated with reported Tmax.
- Test description: Pharmacokinetics of THC and CBD after oral MC formulation (Example 3)
- Run conditions: human, plasma, po, Tmax, 2.5 mg fed: single oral dose 2.5 mg THC/2.5 mg CBD 30 minutes after high fat meal (day 8)

CCCCCc1cc(O)c2c(c1)OC(C)(C)[C@@H]1CCC(C)=C[C@@H]21 [THC, Δ^9-tetrahydrocannabinol] : 2.78 h

Could you now look at the following compound, please?
Exercise: Name the recorded Tmax of the item C=C(C)[C@@H]1CCC(C)=C[C@H]1c1c(O)cc(CCCCC)cc1O [CBD, cannabidiol] in your answer.
Key: 2.78 h

----------
- Test description: Pharmacokinetics of THC and CBD after oral MC formulation (Example 3)
- Run conditions: human, plasma, po, AUC0-8, 2.5 mg: single oral dose 2.5 mg THC/2.5 mg CBD after 12 hour fast (day 1)
Result type: AUC(0-t) (ng·h/mL)
Numeric only. Scale: ng·h/mL

CCCCCc1cc(O)c2c(c1)OC(C)(C)[C@@H]1CCC(C)=C[C@@H]21 [THC, Δ^9-tetrahydrocannabinol] : 2

Could you now look at the following compound, please?
Exercise: Name the recorded AUC(0-t) of the item C=C(C)[C@@H]1CCC(C)=C[C@H]1c1c(O)cc(CCCCC)cc1O in your answer.
Key: 1.76
